- PROTOCOL_SUMMARY: NCI Yeast Anticancer Drug Screen. Data for the mlh1 rad18 strain (AID 175)
- CONDITION_SUMMARY: S. cerevisiae mlh1 rad18 strain growth inhibition; at 50.0 µM; active compounds read high
Compounds without any hit were thinned out: in the full panel of roughly 79,000, 15% have a hit.

[
  {
    "COMPOUND": "C/C(=N\\NC(=S)NCCCNC(=S)N/N=C(\\C)c1ccccn1)c1ccccn1",
    "U": "%",
    "growth inhibition": 88.9
  },
  {
    "COMPOUND": "O=Nc1c(O)c2ccccc2c2ccc([N+](=O)[O-])cc12",
    "U": "%",
    "growth inhibition": 88
  },
  {
    "COMPOUND": "COc1cccc(/C=C2\\CCC(CN(C)C)C2=O)c1 (stereo not given)",
    "U": "%",
    "growth inhibition": 91.7
  },
  {
    "COMPOUND": "CC(C)(C)c1ccc2c(c1)CNCCNCc1cc(C(C)(C)C)ccc1OCC1(CO2)COc2ccc(C(C)(C)C)cc2CNCCNCc2cc(C(C)(C)C)ccc2OC1",
    "U": "%",
    "growth inhibition": 88.2
  },
  {
    "COMPOUND": "c1ccc(C2CC(c3ccc4ccccc4c3)=Nc3ccccc3S2)cc1 (stereo not given)",
    "U": "%",
    "growth inhibition": 88.1
  }
]
